B1: library; a variant is named by its letters at N, in order (parent)
chain: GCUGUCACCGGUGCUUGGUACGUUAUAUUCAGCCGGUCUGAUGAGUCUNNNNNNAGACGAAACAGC

variants of: B1; experiment: normalized RNA/DNA level without ligand (relative to sTRSVctl = 100) (log10 (% of sTRSVctl)); HEK293T overexpressing SLC46A1; higher = less ribozyme self-cleavage, higher mRNA level; conditions: without (6R,S)-folinic acid; ligand present: no
Quick rule for you: normalized RNA/DNA level without ligand (log10) at 2 or higher means TRUE, lower means FALSE.

GUACCA = TRUE
UCAUAG = FALSE
UAGUGU = FALSE
GGCUUG = TRUE
AUGGUG = FALSE
ACAUUG = FALSE

# ---- query variant ----
Query: Would you say GAGGAG shows normalized RNA/DNA level without ligand (log10) at minimum 2?
Response: FALSE

Data provenance is the supplement of paper PMC6757056.
